Recorded growth inhibition values for a group of compounds are listed next.
- procedure-details: NCI Yeast Anticancer Drug Screen. Data for the mec2-1 strain (AID 157)
- test-conditions: S. cerevisiae mec2-1 strain, at 50.0 µM, stronger effect = higher value
Compounds without any hit were thinned out: in the full panel of roughly 79,000, 15% have a hit. Active and inactive are the calls of the source. No stated cut-off is given here; in the data, active means growth inhibition above about 70%; inactive means the rest.

Before answering, review these 6 worked examples.
-- ask Quick one: growth inhibition of "O=C1c2cccc3cccc(c23)C(=O)N1CCCN(CCO)CCO" ?
-- reply 4.25% (inactive)

-- ask Suppose we examine the compound "CCCCCC(=O)OC[n+]1ccc2c(C)c3[nH]c4ccc(OC)cc4c3c(C)c2c1" ; what growth inhibition value has been reported?
-- reply 91.8% (active)

-- ask Given CCCCCC#CC1OC1(C)C (centres undefined) , state its recorded growth inhibition.
-- reply -8.05% (inactive)

-- ask Requested read-out: growth inhibition. Entry: "Cc1cc2c(=O)cc(-c3ccccc3)oc2c(C(=O)O)c1C"
-- reply -8.55% (inactive)

-- ask Value lookup for growth inhibition; key = "Cc1cccc(-c2c3ccccc3cc3c2ccc2ccccc23)c1"
-- reply -5.35% (inactive)

-- ask May I ask what growth inhibition has been recorded for "Cn1c(Cl)cn2c3nc4ccccc4nc3c(=O)c(C#N)c12" ?
-- reply -29.2% (inactive)

Further cases:
-- ask Could you tell me which growth inhibition is on file for "O=C(O)Cc1cc(O)c(CC(=O)O)cc1O" ?
-- reply -21.9% (inactive)

-- ask Item under review: "CCOC(=O)c1ccc(N=Nc2c(N)nc(N)nc2N)cc1" . Reported growth inhibition?
-- reply 10.3% (inactive)

-- ask Entry OC1CC2C=CC1CC2 (centres undefined) has what growth inhibition?
-- reply 10.3% (inactive)

----------
- procedure-details: NCI Yeast Anticancer Drug Screen. Data for the rad50 strain (AID 155);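 further: 0% = growth of vehicle-only cultures of the same strain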
- test-conditions: S. cerevisiae rad50 strain growth inhibition; at 50.0 µM; stronger effect = higher value
The panel holds about 79,000 compounds, 15% with a hit somewhere; the sample as a whole holds those more often.
quantity-kind: growth inhibition (%)
# value in %; strip the unit string

-- ask Param item = "Cc1cc(=O)oc2cc(OC(=O)Nc3ccc(F)c([N+](=O)[O-])c3)ccc12" ; retrieve measured growth inhibition.
-- reply 7.85

More entries:
-- ask Look at this compound and give its reported growth inhibition. "O=[N+]([O-])c1ccc(N/N=C(/c2ccc3ccccc3c2)c2ccccc2F)c([N+](=O)[O-])c1"
-- reply -9

-- ask So what's the measured growth inhibition for this one? O=C1C(Cl)C(c2ccccc2O)N1n1cnc2ccccc2c1=O (configuration not stated)
-- reply -29.4

-- ask Give its growth inhibition value. Item: CONS(=O)c1ccc(Cl)cc1 (configuration not stated)
-- reply 10.8

-- ask GET /values?readout=growth inhibition&item= "O=C(O)COc1cccc(O)c1"
-- reply -26.4

-- ask // growth inhibition lookup, key: "CCSc1ccc(C)cc1"
-- reply 28.6

-- ask GET /values?readout=growth inhibition&item= "COc1ccc(C(=O)/C=C/c2ccc(OCCSCCCCCCCCCCSCCOc3ccc(/C=C/C(=O)c4ccc(OC)c(OC)c4)cc3)cc2)cc1OC"
-- reply -44.4

-- ask Which growth inhibition is reported for this compound? "CCC(=O)OCCCCCCOC(=O)CC"
-- reply 18.3

-- ask Please look up its growth inhibition: COc1ccc(CCNC(=O)C(Sc2ccccn2)c2ccccc2)cc1OC (configuration not stated)
-- reply 20.6

-- ask What does the data say about its growth inhibition? Entry: "CC(C)C1=C(Cc2ccccc2)C(=O)O/C1=C\c1cc(Cl)c(O)c(Cl)c1"
-- reply 19.9

-- ask // lookup growth inhibition for "COc1ccccc1/C=C(\C)C(=O)O"
-- reply 10.8

-- ask What does the record list as growth inhibition for CS(=O)(=O)CCC(Nc1ccc([N+](=O)[O-])cc1[N+](=O)[O-])C(=O)O (configuration not stated) ?
-- reply 4.7

-- ask For the compound "COc1ccc(NC(=O)C(=O)Cc2ccc([N+](=O)[O-])c([N+](=O)[O-])c2CC(=O)C(=O)Nc2ccc(OC)cc2OC)c(OC)c1" , what growth inhibition is on record?
-- reply 0.35

Source: PubChem BioAssay (NCI)
